# System: Aspergillus niger
# Procedure Summary: In vitro antifungal activity against Aspergillus niger KCTC 1231 was measured
# Assay type: functional
Property: MIC (µg/mL)

// known answers, use as guide
| Structure Smiles | System Tested | Value Units | MIC |
| --- | --- | --- | --- |
| O=C1C(Cl)=C(Nc2ccc(Cl)cc2)C(=O)c2[nH]c(-c3ccncc3)nc21 | Aspergillus niger | µg/mL | 100 |
| O=C1C(Cl)=C(Nc2ccc(Cl)cc2)C(=O)c2[nH]c(-c3cccnc3)nc21 | Aspergillus niger | µg/mL | 100 |
| O=C1C(Cl)=C(Nc2ccc(Cl)cc2)C(=O)c2[nH]c(-c3ccccn3)nc21 | Aspergillus niger | µg/mL | 6.3 |
| O=C1C(Cl)=C(Nc2ccc(Br)cc2)C(=O)c2[nH]c(-c3ccccn3)nc21 | Aspergillus niger | µg/mL | 6.3 |

a = Cc1ccc(NC2=C(Cl)C(=O)c3nc(-c4ccccn4)[nH]c3C2=O)cc1
b = O=C1C=C(Nc2ccc(I)cc2)C(=O)c2[nH]c(-c3ccccn3)nc21
# return whichever of a and b has the smaller MIC Please reply using the label of the selected record.
a

* * *

# System: Aspergillus niger
# Procedure Summary: In vitro antifungal activity against Aspergillus niger KCTC 1231 was measured
# Assay type: functional
Property: MIC (µg/mL)

// known answers, use as guide
| Structure Smiles | Value Units | Result Number |
| --- | --- | --- |
| O=C1C=C(Nc2ccc(Br)cc2)C(=O)c2[nH]c(-c3ccccn3)nc21 | µg/mL | 1.6 |
| O=C1C(Cl)=C(Nc2ccc(Br)cc2)C(=O)c2[nH]c(-c3ccncc3)nc21 | µg/mL | 100 |

I = COc1ccc(NC2=CC(=O)c3[nH]c(-c4ccccn4)nc3C2=O)cc1
II = O=C1C(Cl)=C(Nc2ccc(Br)cc2)C(=O)c2[nH]c(-c3cccnc3)nc21
# return whichever of I and II has the smaller MIC Please reply using the label of the selected record.
I
(I: 50 µg/mL, II: 100 µg/mL)

* * *

# Tested on: Aspergillus niger
# Procedure Summary: In vitro antifungal activity against Aspergillus niger KCTC 1231 was measured
# Format: functional
Property: MIC (µg/mL)

| Compound | MIC (µg/mL) |
| --- | --- |
| COc1ccc(NC2=C(Cl)C(=O)c3nc(-c4cccnc4)[nH]c3C2=O)cc1 | 100 |
| O=C1C(Cl)=C(Nc2ccc(F)cc2)C(=O)c2[nH]c(-c3cccnc3)nc21 | 100 |
| O=C1C(Nc2ccc(F)cc2)=CC(=O)c2[nH]c(-c3ccccn3)nc21 | 100 |
| O=C1C=CC(=O)c2[nH]c(-c3ccccn3)nc21 | 100 |
| O=C1C(Cl)=C(Nc2ccc(F)cc2)C(=O)c2[nH]c(-c3ccncc3)nc21 | 100 |
| O=C1C(Cl)=C(Cl)C(=O)c2[nH]c(-c3ccccn3)nc21 | 100 |
| COc1ccc(NC2=C(Cl)C(=O)c3nc(-c4ccccn4)[nH]c3C2=O)cc1 | 25 |
| Cc1ccc(NC2=CC(=O)c3[nH]c(-c4ccccn4)nc3C2=O)cc1 | 6.3 |
| COc1ccc(NC2=C(Cl)C(=O)c3nc(-c4ccncc4)[nH]c3C2=O)cc1 | 100 |
| O=C1C(Cl)=C(Nc2ccc(F)cc2)C(=O)c2[nH]c(-c3ccccn3)nc21 | 25 |

P = Nc1nc(=O)[nH]cc1F [FLUCYTOSINE]
Q = CCOc1ccc(NC2=CC(=O)c3nc(-c4ccccn4)[nH]c3C2=O)cc1
# return whichever of P and Q has the smaller MIC Please reply using the label of the selected record.
P
